src = patent US7074789B2

What IC50 was measured for each of the following?
target: EGFR (Homo sapiens, UniProt P00533); construct: Kinases are expressed as either kinase domains or full length constructs; made in house; assay: Kinase inhibition assay (33P transfer), EGFR; format: biochemical; details: Table 2, kinase inhibition class; read-out: EGFR-1
Sequence (P00533 25-1210, species assumed): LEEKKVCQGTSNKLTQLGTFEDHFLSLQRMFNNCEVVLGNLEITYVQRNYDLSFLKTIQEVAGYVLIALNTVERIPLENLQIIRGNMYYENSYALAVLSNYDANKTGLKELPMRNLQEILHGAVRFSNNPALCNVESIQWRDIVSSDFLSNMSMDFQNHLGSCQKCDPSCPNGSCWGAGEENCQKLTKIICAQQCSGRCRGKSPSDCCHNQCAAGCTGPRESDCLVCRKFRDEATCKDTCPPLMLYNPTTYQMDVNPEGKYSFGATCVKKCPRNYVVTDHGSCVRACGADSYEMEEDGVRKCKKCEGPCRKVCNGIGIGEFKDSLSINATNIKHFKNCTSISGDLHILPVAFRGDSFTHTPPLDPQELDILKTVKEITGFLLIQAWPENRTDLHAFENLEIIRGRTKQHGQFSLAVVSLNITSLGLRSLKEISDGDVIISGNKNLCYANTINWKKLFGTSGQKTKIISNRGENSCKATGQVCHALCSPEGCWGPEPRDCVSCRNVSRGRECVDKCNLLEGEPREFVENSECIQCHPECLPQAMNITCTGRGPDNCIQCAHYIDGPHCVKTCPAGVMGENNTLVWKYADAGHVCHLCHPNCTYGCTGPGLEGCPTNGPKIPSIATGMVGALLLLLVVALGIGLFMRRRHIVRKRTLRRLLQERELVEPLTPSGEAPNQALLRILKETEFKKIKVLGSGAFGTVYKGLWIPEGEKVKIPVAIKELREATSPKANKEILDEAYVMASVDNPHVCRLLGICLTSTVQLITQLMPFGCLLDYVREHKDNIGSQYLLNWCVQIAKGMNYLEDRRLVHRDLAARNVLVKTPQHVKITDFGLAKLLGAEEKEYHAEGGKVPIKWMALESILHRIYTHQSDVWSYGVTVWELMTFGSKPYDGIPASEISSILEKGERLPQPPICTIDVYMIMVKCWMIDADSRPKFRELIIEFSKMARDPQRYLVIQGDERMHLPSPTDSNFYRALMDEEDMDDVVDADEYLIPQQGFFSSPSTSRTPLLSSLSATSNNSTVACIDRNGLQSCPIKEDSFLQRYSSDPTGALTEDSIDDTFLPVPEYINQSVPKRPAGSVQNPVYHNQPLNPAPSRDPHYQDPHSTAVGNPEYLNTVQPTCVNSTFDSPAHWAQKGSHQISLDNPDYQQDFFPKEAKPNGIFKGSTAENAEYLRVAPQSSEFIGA

Use these answered entries as a reference point.
O=[N+]([O-])c1cccc(Nc2ncnc(-c3cccs3)n2)c1 > 15 µM
COc1cc(Nc2ncnc(Nc3ccccc3)n2)cc(OC)c1OC 1.13 to 6.79 µM
NC(=O)c1ccc(Nc2ncnc(-c3cccnc3NCc3cccs3)n2)cc1 0.991 to 5.95 µM

We now examine a further compound.
If you can, please state the reported IC50 value of COc1cc(C)c(Nc2ncnc(Nc3cc(-c4ccco4)n[nH]3)n2)cc1OC .
1.02 to 6.1 µM
